# Tested on: HCI16 (cells of a triple-negative basal-like breast cancer xenograft);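 note: PDX cells carrying CMV promoter-driven luciferase, viability read as total photon flux per second by IVIS imaging following D-luciferin, vehicle control 0.1% DMSO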
# measurement notes: cell viability (% of vehicle); higher = less cytotoxic
# reported conditions: 10 µM; 72 h
experimental endpoint: cell viability

Worked cases, answers included:
>>> df
                                   compound  experimental_endpoint  recorded_value
0  CCOc1nc2cccc(C(=O)OC(C)OC(=O)OC3CCCCC3)c2n1Cc1ccc(-c2ccccc2-c2nn[nH]n2)cc1 (centres undefined) [Candesartan Cilexetil]         cell viability            75.3
1  CC1(C)SC2C(NC(=O)C(N)c3ccc(O)cc3)C(=O)N2C1C(=O)O (centres undefined) [Amoxicillin]         cell viability             120
2  S=C(NCc1ccc2c(c1)OCO2)N1CCN(c2ncnc3c2oc2ccccc23)CC1 [Amuvatinib (MP-470, HPK 56)]         cell viability            84.3

In the following, a different compound is considered.
Enquiry: Please give the measured cell viability for this compound: CCCNC1CCc2nc(N)sc2C1 (centres undefined) [Pramipexole]
Return: 151

###

# System: HCI01 (cells of a triple-negative basal-like breast cancer xenograft)
# measurement notes: cell viability of combination (% of vehicle); higher = less cytotoxic
# reported conditions: 1 µM; 72 h; partner dose: 10 nM
I'd appreciate it if you marked entries Met when cell viability of combination is lower than 100 and Not met when it is not.

Worked examples, 3 compounds total:
compound	study target	group label
COCCOC(=O)C1=C(C)NC(C)=C(C(=O)OCC=Cc2ccccc2)C1c1cccc([N+](=O)[O-])c1 (stereo unspecified) [Cilnidipine] + CC(C)C[C@H](NC(=O)[C@H](CCc1ccccc1)NC(=O)CN1CCOCC1)C(=O)N[C@@H](Cc1ccccc1)C(=O)N[C@@H](CC(C)C)C(=O)[C@@]1(C)CO1 [Carfilzomib]	HCI01	Not met
C[C@H]1O[C@@H](O[C@H]2[C@@H](O)C[C@H](O[C@H]3[C@@H](O)C[C@H](O[C@H]4CC[C@@]5(C)[C@H](CC[C@@H]6[C@@H]5C[C@@H](O)[C@]5(C)[C@@H](C7=CC(=O)OC7)CC[C@]65O)C4)O[C@@H]3C)O[C@@H]2C)C[C@H](O)[C@@H]1O [Digoxin] + CC(C)C[C@H](NC(=O)[C@H](CCc1ccccc1)NC(=O)CN1CCOCC1)C(=O)N[C@@H](Cc1ccccc1)C(=O)N[C@@H](CC(C)C)C(=O)[C@@]1(C)CO1 [Carfilzomib]	HCI01	Met
CC(C)CC(NC(=O)C(NC(=O)c1cccc(-c2ccccc2)n1)C(C)O)B(O)O (stereo unspecified) + CC(C)C[C@H](NC(=O)[C@H](CCc1ccccc1)NC(=O)CN1CCOCC1)C(=O)N[C@@H](Cc1ccccc1)C(=O)N[C@@H](CC(C)C)C(=O)[C@@]1(C)CO1 [Carfilzomib]	HCI01	Met

Enquiry: I wonder whether Nc1c(CC(=O)[O-])cccc1C(=O)c1ccccc1.O.[Na+] [Amfenac Sodium Monohydrate] + CC(C)C[C@H](NC(=O)[C@H](CCc1ccccc1)NC(=O)CN1CCOCC1)C(=O)N[C@@H](Cc1ccccc1)C(=O)N[C@@H](CC(C)C)C(=O)[C@@]1(C)CO1 [Carfilzomib] has cell viability of combination below 100. Can you tell?
Return: Met

Enquiry: Also check CC(=O)C1(O)Cc2c(O)c3c(c(O)c2C(OC2CC(N)C(O)C(C)O2)C1)C(=O)c1ccccc1C3=O.Cl (stereo unspecified) [Idarubicin HCl] + CC(C)C[C@H](NC(=O)[C@H](CCc1ccccc1)NC(=O)CN1CCOCC1)C(=O)N[C@@H](Cc1ccccc1)C(=O)N[C@@H](CC(C)C)C(=O)[C@@]1(C)CO1 [Carfilzomib]
Return: Not met
